test: NCI Yeast Anticancer Drug Screen. Data for the rad14 strain (AID 159);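 note: 0% = growth of vehicle-treated control cultures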; conditions: S. cerevisiae rad14 strain growth inhibition; at 1.2 µM; stronger effect = higher value
This is part of a sample that, as a whole, favours compounds with a hit. Of some 79,000 tested, about 15% had one in any assay.
Overview of recorded growth inhibition for various molecules
The answer is to be given in %; state only the numeric part.

Worked examples, 10 molecules total:
INSERT INTO results (molecule, assay_endpoint, output_unit, endpoint_result) VALUES
  ('O=Cc1ccccc1C=O', 'growth inhibition', '%', -17),
  ('CCN1CCC(O)(c2ccc(Oc3ccc(C)cc3)cc2)C(C(=O)c2ccc(Oc3ccc(C)cc3)cc2)C1 (stereo not drawn)', 'growth inhibition', '%', -38),
  ('COc1ccc(/C=C2\SC(=S)N(/C=C3\C(=O)N(c4ccccc4)N=C3C)C2=O)cc1OC', 'growth inhibition', '%', 3),
  ('CCc1c(Cl)c(C)c(Cl)c(O)c1Cl', 'growth inhibition', '%', -11),
  ('O=c1[nH]c2c([N+](=O)[O-])cccc2c2ccccc12', 'growth inhibition', '%', 2),
  ('CC(C)CCC[C@@H](C)[C@H]1CC[C@H]2[C@@H]3CC[C@H]4C[C@H](N)CC[C@]4(C)[C@H]3CC[C@]12C', 'growth inhibition', '%', -1),
  ('Cc1ccc(S(=O)(=O)Nc2cccc3cccnc23)cc1', 'growth inhibition', '%', -19),
  ('NNc1ccccc1-c1nc2ccccc2[nH]1', 'growth inhibition', '%', -2),
  ('Cc1ccccc1NC(=O)c1c(C)oc2c1C(=O)c1ccccc1C2=O', 'growth inhibition', '%', -45),
  ('Fc1cc(F)c(F)c(S)c1F', 'growth inhibition', '%', -47);

Ask: For the molecule shown here, COC1/C=C\C=C(/C)C(=O)NC2=CC(=O)C(=O)C(=C2O)CC(C)CC(OC)C(O)C(C)/C=C(\C)C1OC(N)=O (stereo not drawn) , give the reported growth inhibition.
Reply: -13

Ask: For the molecule shown here, O=C1Nc2ccc(Br)cc2C1=Nc1cccnc1 , give the reported growth inhibition.
Reply: -55

Ask: For the molecule shown here, COc1ccc2c(c1)CCCC(Br)C2=O (stereo not drawn) , give the reported growth inhibition.
Reply: 3

* * *

test: NCI Yeast Anticancer Drug Screen. Data for the rad50EPP+ strain (AID 151);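 note: 0% = growth of vehicle-treated control cultures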; conditions: S. cerevisiae rad50 mutant strain, at 11.0 µM, stronger effect = higher value
About 79,000 compounds went through this panel and 15% of them were active in at least one assay; those are over-represented in the sample as a whole.
Class class 1: growth inhibition at least 20%. Class class 0: growth inhibition below 20%.

Answered examples (8):
INSERT INTO assay_data (compound, category) VALUES
  ('O=C(CCCN1CCC(Nc2ccc(F)cc2)(c2nnnn2C2CCCCC2)CC1)c1ccc(F)cc1', 'class 0'),
  ('CC(=O)/C=C/c1cccc([N+](=O)[O-])c1', 'class 1'),
  ('C/C1=C/C2OC(=O)C3(C)C2C(CC2(C)OC1=CC2=O)OC3(O)C(C)C (centres undefined)', 'class 1'),
  ('CCOC(=O)/C(=C/c1cccc(Cl)c1)N(CC)CC', 'class 1'),
  ('C=CCNC1=C2C[C@@H](C)C[C@H](OC)[C@H](O)[C@@H](C)/C=C(\C)[C@H](OC(N)=O)[C@@H](OC)/C=C\C=C(/C)C(=O)NC(=CC1=O)C2=O', 'class 0'),
  ('CC(C)(N=Nc1ccc(Cl)cc1)[N+](=O)[O-]', 'class 1'),
  ('O=C1C(/C=C/c2ccc(Cl)cc2)=NNC2N1N=C1NC(=O)C3(NN12)c1ccccc1-c1ccccc13 (centres undefined)', 'class 0'),
  ('CCC(/C=C/c1ccccc1)=N\Nc1ccc(Cl)cc1', 'class 0');

Ask: Does the reported growth inhibition for COc1ccc2cc(C(C)C(=O)N3CCOC3=O)ccc2c1 (centres undefined) fall at or above the 20% mark?
Reply: class 0

Ask: Does the reported growth inhibition for O=C(NNc1ccccc1)C(CCCCNS(=O)(=O)Cc1ccccc1)NS(=O)(=O)Cc1ccccc1 (centres undefined) fall at or above the 20% mark?
Reply: class 1

Ask: Does the reported growth inhibition for O=C(O)C1CCCCC1c1c2ccc(=O)cc-2oc2cc(O)ccc12 (centres undefined) fall at or above the 20% mark?
Reply: class 0

Ask: Does the reported growth inhibition for O=C1CSC(c2ccccc2)N1c1ccc(-c2ccc(-n3c(-c4ccccc4)nc4ccccc4c3=O)cc2)cc1 (centres undefined) fall at or above the 20% mark?
Reply: class 0

Ask: Does the reported growth inhibition for CC(C)[Si]1(C(C)C)OCC2OC(n3cnc4c(N)ncnc43)C(N)C2O[Si](C(C)C)(C(C)C)O1 (centres undefined) fall at or above the 20% mark?
Reply: class 0

* * *

assay: NCI Yeast Anticancer Drug Screen. Data for the mgt1 strain (AID 153); settings: S. cerevisiae mgt1 mutant growth inhibition; at 3.7 µM
Compounds without any hit were thinned out: in the full panel of roughly 79,000, 15% have a hit. Activity calls are given as the source filed them. Rule as the data show it: active = growth inhibition above about 70%; inactive = the rest.
Return exactly one item of true = active, false = inactive

Answered examples (8):
INSERT INTO results (molecule, category) VALUES
  ('CCOC(=O)Nc1ccc(C)c(NC(=O)OCC)c1', 'false'),
  ('CCCNCC(=O)O[C@]1(CC)C(=O)OCc2c1cc1n(c2=O)Cc2cc3ccccc3nc2-1', 'false'),
  ('O=[N+]([O-])/C=C/c1cc2ccc3ccccc3c2[nH]1', 'false'),
  ('O=C(C#Cc1ccccc1)/C=C/c1ccccc1', 'false'),
  ('N#CSCC1COc2ccccc2O1 (configuration not stated)', 'false'),
  ('CCCCCCCN(CCCCCCC)CC(=O)c1ccc2cc(Cl)c3ccccc3c2c1', 'false'),
  ('Cc1cc(C)c2[s+]snc2c1', 'false'),
  ('CCOc1ccc(N)c(S)c1', 'false');

Ask: // return assay outcome for CC(C)CCC[C@@H](C)[C@H]1CC[C@H]2[C@@H]3CC[C@H]4C[C@H](N)CC[C@]4(C)[C@H]3CC[C@]12C
Reply: false

Ask: // return assay outcome for c1ccc2nc3c(nc2c1)sc1ccccc13
Reply: false

Ask: // return assay outcome for CC(C)OC(=O)NNc1c(Cl)cc(Cl)cc1Cl
Reply: false

Ask: // return assay outcome for CCCCN(CCCC)c1ccc(N=Nc2ccc(S(=O)(=O)O)cc2)cc1
Reply: false

Ask: // return assay outcome for Cc1ccnc2c(O)cccc12
Reply: true

Ask: // return assay outcome for O=C(Nc1ccc(Cl)cc1)c1cc2cc(N=Nc3ccccc3Cl)ccc2oc1=O
Reply: false

Ask: // return assay outcome for COc1cc(OC)c(CSCC(NC(=O)OCC2c3ccccc3-c3ccccc32)C(=O)O)c(OC)c1 (configuration not stated)
Reply: false

* * *

experiment: NCI Yeast Anticancer Drug Screen. Data for the wt2 strain (AID 169);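 note: 0% = growth of vehicle-treated yeast cultures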; conditions: S. cerevisiae wt2 strain growth inhibition; at 33.0 µM; stronger effect = higher value
About 79,000 compounds went through this panel and 15% of them were active in at least one assay; those are over-represented in the sample as a whole.
Assay endpoint: growth inhibition (%)
The answer is to be given in %; state only the numeric part.

Worked examples, 5 molecules total:
INSERT INTO results (molecule, assay_endpoint, endpoint_result) VALUES
  ('CCOC(=O)/C(=C\c1ccc(F)cc1)C(C)=O', 'growth inhibition', 95),
  ('CN(C)CCNc1ccc2ncn3c4ccc(O)cc4c(=O)c1c23', 'growth inhibition', -8),
  ('CCCCCCCCN1COCC(COc2ccccc2C)OC1 (configuration not stated)', 'growth inhibition', 13),
  ('CC1CCC(C2=CSC3CCCCC3N2)CC1 (configuration not stated)', 'growth inhibition', 19),
  ('O=C(Cc1ccccc1)NNc1nc(NNC(=O)c2ccncc2)nc(Nc2ccc(Cl)cc2)n1', 'growth inhibition', -1);

Ask: For the molecule shown here, Cc1cccc2c(Cl)c3cccc(C)c3nc12 , give the reported growth inhibition.
Reply: 3

Ask: For the molecule shown here, CCN1CCC(O)(c2ccc(Oc3ccc(Cl)cc3)cc2)C(C(=O)c2ccc(Oc3ccc(Cl)cc3)cc2)C1 (configuration not stated) , give the reported growth inhibition.
Reply: -13

* * *

Test: NCI Yeast Anticancer Drug Screen. Data for the mlh1 rad18 strain (AID 175)
Settings: S. cerevisiae mlh1 rad18 strain growth inhibition; at 50.0 µM (retest, dose inferred, filed as 5.0); stronger effect = higher value
Protocol: Growth inhibition of yeast strains with defined genetic alterations is measured as a screen for potential anti-cancer activity. Selected strains with alterations in DNA damage repair or cell cycle control were exposed to compounds and growth inhibition was measured relative to vehicle treated controls. The strain used in this assay is mlh1 rad18
Compounds without any hit were thinned out: in the full panel of roughly 79,000, 15% have a hit.
Assay endpoint: growth inhibition (%)
The answer is to be given in %; state only the numeric part.

INSERT INTO assay_data (compound, endpoint_result) VALUES
  ('CN(C)N=Nc1ccc(N(C)C)cc1', 77),
  ('COC(=O)C(=O)CC(=O)c1cccc(OC)c1', -19),
  ('COc1ccccc1NC(=O)c1ccc(Cl)cc1', 11),
  ('CC(C)OP(=O)(OC(C)C)C(=NCCO)NNc1ccc([N+](=O)[O-])cc1', 96),
  ('CCCCCc1c(CCCC)c(=O)[nH]c2cc(CNCC(OC)OC)ccc12', 96),
  ('O=C1C=CC(=Nc2cccc3c2-c2ccccc2C3=O)O1', 99);

Let us move to another entry and its growth inhibition.
Ask: For the compound shown here, COc1cc(C(=O)C=O)cc(OC)c1OC , give the reported growth inhibition.
Reply: 52
